conditions-used: in 2-propoxyethanol, 318.15 K
property-name: solubility (mole fraction)
One number for each entry.

Quick check: solubility (mole fraction) of Cc1c(-c2ccccc2)oc2c(C(=O)OCCN3CCCCC3)cccc2c1=O.Cl ?
0.000704

----------
conditions-used: in methanol, 303.15 K
property-name: solubility (mole fraction)
Give bare numbers.

Give the measured solubility (mole fraction) of Cc1c(-c2ccccc2)oc2c(C(=O)OCCN3CCCCC3)cccc2c1=O.Cl .
0.0014

----------
conditions-used: in n-propanol, 298.15 K
property-name: solubility (mole fraction)

I'd like to know its solubility (mole fraction). The compound in question is Cc1c(-c2ccccc2)oc2c(C(=O)OCCN3CCCCC3)cccc2c1=O.Cl
0.000107

----------
conditions-used: in methanol, 293.15 K
property-name: solubility (mole fraction)
Answers are plain numbers.

So what's the measured solubility (mole fraction) for this one? Cc1c(-c2ccccc2)oc2c(C(=O)OCCN3CCCCC3)cccc2c1=O.Cl
0.000961

----------
conditions-used: in methanol, 323.15 K
property-name: solubility (mole fraction)
One number for each entry.

Query (compound): Cc1c(-c2ccccc2)oc2c(C(=O)OCCN3CCCCC3)cccc2c1=O.Cl ; field requested: solubility (mole fraction)
0.00317

----------
conditions-used: in 2-ethoxyethanol, 293.15 K
property-name: solubility (mole fraction)
One number for each entry.

Which solubility (mole fraction) value belongs to Cc1c(-c2ccccc2)oc2c(C(=O)OCCN3CCCCC3)cccc2c1=O.Cl ?
0.000211

----------
conditions-used: in methanol, 278.15 K
property-name: solubility (mole fraction)
One number for each entry.

Request the reported solubility (mole fraction) associated with Cc1c(-c2ccccc2)oc2c(C(=O)OCCN3CCCCC3)cccc2c1=O.Cl
0.000529

----------
conditions-used: in n-propanol, 308.15 K
property-name: solubility (mole fraction)
Numbers only.

Can you look up the measured solubility (mole fraction) of Cc1c(-c2ccccc2)oc2c(C(=O)OCCN3CCCCC3)cccc2c1=O.Cl for me?
0.000188

----------
conditions-used: in ethanol, 318.15 K
property-name: solubility (mole fraction)
Answers are plain numbers.

What value of solubility (mole fraction) has been reported for the following compound? Cc1c(-c2ccccc2)oc2c(C(=O)OCCN3CCCCC3)cccc2c1=O.Cl
0.000452

----------
conditions-used: in 2-propoxyethanol, 288.15 K
property-name: solubility (mole fraction)

// lookup solubility (mole fraction) for Cc1c(-c2ccccc2)oc2c(C(=O)OCCN3CCCCC3)cccc2c1=O.Cl
0.000255

----------
conditions-used: in ethylene glycol, 313.15 K
property-name: solubility (mole fraction)
Give bare numbers.

Reported solubility (mole fraction), compound Cc1c(-c2ccccc2)oc2c(C(=O)OCCN3CCCCC3)cccc2c1=O.Cl : ____
0.00347

----------
conditions-used: in n-butanol, 293.15 K
property-name: solubility (mole fraction)
Answers are plain numbers.

Consider the compound shown here: Cc1c(-c2ccccc2)oc2c(C(=O)OCCN3CCCCC3)cccc2c1=O.Cl What is its recorded solubility (mole fraction)?
9.1e-05

----------
conditions-used: in 2-ethoxyethanol, 283.15 K
property-name: solubility (mole fraction)

So what does the record say about solubility (mole fraction) for Cc1c(-c2ccccc2)oc2c(C(=O)OCCN3CCCCC3)cccc2c1=O.Cl ?
0.000162

----------
conditions-used: in 2-methoxyethanol, 323.15 K
property-name: solubility (mole fraction)
Numbers only.

State the recorded solubility (mole fraction) for this entry: Cc1c(-c2ccccc2)oc2c(C(=O)OCCN3CCCCC3)cccc2c1=O.Cl
0.00182

Hello, the source for this data is BigSolDB 2.1, in case you need it.
